- System: H9c2;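 also: cell death induced by hydrogen peroxide oxidative stress; compound pretreatment for 60 min then peroxide exposure for 2 h; potency is for protecting the cells against peroxide damage rather than for killing them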;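 also: confirmatory concentration-response retest of ultra-high-throughput screening hits for modulation of myocardial damage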
- assayMethodText: cells
- Assay type: functional, cell-based
- measurementParameters: Rattus norvegicus, H9c2, Myocardium
The source made the active and inactive calls.
Hi there, I'd appreciate the recorded IC50 for every entry that follows.

In [3]: df
Out[3]:
                                   compound  reportedendpoint  observedmeasurement
0  CN(C(=O)CCc1nc(O)c2ccccc2n1)C1CCS(=O)(=O)C1 (centres undefined)              IC50   > 79 µM (inactive)
1  COC(=O)c1c(C)[nH]c(O)c1/C=N/c1ccc(Oc2ccccc2)cc1              IC50   > 79 µM (inactive)
2  COc1ccc(C(C(=O)NCc2ccccc2)N(Cc2cccs2)C(=O)c2cnccn2)cc1 (centres undefined)              IC50   > 79 µM (inactive)

Input: Tell me the measured IC50 of "COc1ccccc1NS(=O)(=O)c1ccc2oc(SCC(=O)N3CCNC3=O)nc2c1" , please.
Output: 15.8 µM (active)

----------
- targetSystem: Cytochrome P450 2C19 (Homo sapiens)
- Sequence (P33261 whole entry): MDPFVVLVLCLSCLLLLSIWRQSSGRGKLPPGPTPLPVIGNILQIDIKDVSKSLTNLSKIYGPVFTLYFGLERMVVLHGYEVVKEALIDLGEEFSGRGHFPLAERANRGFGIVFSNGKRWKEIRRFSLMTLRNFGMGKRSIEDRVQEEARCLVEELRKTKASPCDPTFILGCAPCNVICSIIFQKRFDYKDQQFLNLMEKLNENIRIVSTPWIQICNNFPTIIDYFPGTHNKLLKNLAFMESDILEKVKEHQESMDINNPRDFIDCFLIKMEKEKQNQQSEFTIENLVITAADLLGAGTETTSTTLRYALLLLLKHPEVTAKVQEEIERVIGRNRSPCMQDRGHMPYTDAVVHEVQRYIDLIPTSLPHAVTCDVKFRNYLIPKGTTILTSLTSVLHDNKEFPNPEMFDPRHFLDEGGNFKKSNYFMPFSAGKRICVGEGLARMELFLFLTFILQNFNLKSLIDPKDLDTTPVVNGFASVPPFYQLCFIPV
- assayMethodText: Cytochrome panel assay with activity outcomes. Panel member name: p450-cyp2c19 Compounds with AC50 equal or less than 10 uM are considered active
- Format: functional
reportedEndpoint: AC50

Worked examples follow.
>>> print(df.to_string())
                               recordsmiles                         targetsystem     observedmeasurement
0  C=CCn1c(C)c(C(C)=O)c(N2CCN(c3ccccc3)CC2)nc1=S  Cytochrome P450 2C19 (Homo sapiens)  5.62 µM (inconclusive)
1  O=C1OCC(c2ccccc2)=C1c1ccc(S(=O)(=O)N2CCOCC2)s1  Cytochrome P450 2C19 (Homo sapiens)  22.4 µM (inconclusive)
2      CN(C)c1ccc(-c2cc(NCc3cccnc3)ncn2)cc1  Cytochrome P450 2C19 (Homo sapiens)  39.8 µM (inconclusive)
3  COc1cc(/C=N/NC(=O)c2cccc([N+](=O)[O-])c2)ccc1OCc1ccc(C)cc1  Cytochrome P450 2C19 (Homo sapiens)  2.51 µM (inconclusive)

Input: Tell me the measured AC50 of "COc1ccc(Oc2ncc3nc(C)c(=O)n(Cc4cccs4)c3n2)cc1" , please.
Output: 39.8 µM (inconclusive)

----------
- assayMethodText: growth suppression of beta-catenin-knockout colon cells, dose response, cell-based, HCT116, human colon tumor (AID 1045);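 also: HCT116 colon tumor cells with beta catenin knocked out; cells exposed to compound for 60 hours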
- Format: functional
Activity calls are given as the source filed them.
reportedEndpoint: EC50

Worked examples follow.
                               recordsmiles  reportedendpoint  observedmeasurement
0  COc1ccc(-n2nc(C(=O)c3cccs3)cc(-c3nc4ccccc4[nH]3)c2=N)cc1              EC50     11.2 µM (active)
1  CC(C)Cn1c(N)c(C(=O)CSc2ncnc3sc4c(c23)CCCC4)c(=O)n(C)c1=O              EC50     12.2 µM (active)
2  OCCN1CCN(CCCN2c3ccccc3Sc3ccc(C(F)(F)F)cc32)CC1              EC50     8.41 µM (active)

Input: Tell me the measured EC50 of "CCOC(=O)c1cccc(-n2c(-c3ccc(OC)cc3)nc3nc4ccccc4nc32)c1" , please.
Output: 13.5 µM (active)

----------
- assayMethodText: Luminescence Cell-Based Dose Response HTS to Identify Inhibitors of 5'UTR Stem-Loop Driven Prion Protein mRNA Translation in H4 Neuroglioblastoma Cells. [Related pubchem assays: 1827 (Project Summary), 1813 (Primary HTS)]
- Assay type: functional
Calls of active or inactive are those of the source.
reportedEndpoint: EC50

Worked examples follow.
>>> df
                                molecule  reportedendpoint    observedmeasurement
0     O=C1C=C(NCCN2CCOCC2)C(=O)c2cnccc21              EC50       6.81 µM (active)
1     Cc1cccc(C(=O)Nc2ccc(CC(=O)O)cc2)c1              EC50       16.9 µM (active)
2  Nc1sc(-c2ccccc2)n[n+]1Cc1cccc2cccnc12              EC50  > 120 µM (not active)
3   O=C(CCCc1nc(-c2ccccc2Cl)no1)NC1CCCC1              EC50       5.93 µM (active)

# return EC50 for each item in the list
1. Sc1nnc(-c2ccccc2)n1C1C=CCCC1 (configuration not stated)
2. COc1ccc(-c2noc(CSc3nnc(CCc4ccccc4)n3-c3ccccc3)n2)cc1OC
3. CCN(CC)c1ccc(NC(=O)COc2ccc(C#N)cc2)cc1S(=O)(=O)Nc1ccc(OC)cc1

Output:
1. 104 µM (active)
2. 14.5 µM (active)
3. > 120 µM (not active)

----------
Reported AC50 for target or system Cytochrome P450 2D6 (Homo sapiens), by entry.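 Also: CYP2D6 member of a cytochrome P450 panel assay.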

Worked examples follow.
>>> print(df.to_string())
                                   molecule                        targetsystem  reportedendpoint     observedmeasurement
0  CCNc1ncc2nc(-c3ccc(F)cc3)c(=O)n(CCC#N)c2n1  Cytochrome P450 2D6 (Homo sapiens)              AC50   0.1 µM (inconclusive)
1           Cc1cc(-c2ccccc2)nnc1NCCN1CCOCC1  Cytochrome P450 2D6 (Homo sapiens)              AC50  7.94 µM (inconclusive)
2  CCN1CCN(CC(=O)N2c3ccccc3CC2C)CC1.O=C(O)C(=O)O (stereo unspecified)  Cytochrome P450 2D6 (Homo sapiens)              AC50  17.8 µM (inconclusive)
3  COc1ccc(CNc2ncnc3ccc(-c4cccc(NS(C)(=O)=O)c4)cc23)c(OC)c1  Cytochrome P450 2D6 (Homo sapiens)              AC50    10 µM (inconclusive)
4                  CCOC(=O)NNc1nncc2ccccc12  Cytochrome P450 2D6 (Homo sapiens)              AC50  12.6 µM (inconclusive)
5        c1cn(-c2ncnc3ccc(-c4ccoc4)cc23)cn1  Cytochrome P450 2D6 (Homo sapiens)              AC50  39.8 µM (inconclusive)
6  Cc1ccc(S(=O)(=O)N(CC(=O)NCCC2=CCCCC2)Cc2ccccc2F)cc1  Cytochrome P450 2D6 (Homo sapiens)              AC50    20 µM (inconclusive)
7  CCOC(=O)N1CCN(c2nc(-c3ccco3)cc(C(F)(F)F)n2)CC1  Cytochrome P450 2D6 (Homo sapiens)              AC50  14.1 µM (inconclusive)
8  CCn1c2ccccc2c2cc(NS(=O)(=O)c3ccccc3C)ccc21  Cytochrome P450 2D6 (Homo sapiens)              AC50  8.91 µM (inconclusive)
9                 Cc1cc2cc(C=O)c(Cl)nc2cc1C  Cytochrome P450 2D6 (Homo sapiens)              AC50  7.08 µM (inconclusive)

Continue with the next molecule.
Input: Record lookup: for Cytochrome P450 2D6 (Homo sapiens), what AC50 belongs to "CCCC(=O)NCCc1c2n(c3ccc(OC)cc13)Cc1ccccc1-2" ?
Output: 39.8 µM (inconclusive)

----------
- targetSystem: Vascular endothelial growth factor receptor 2 (Homo sapiens)
- Sequence (P35968 whole entry): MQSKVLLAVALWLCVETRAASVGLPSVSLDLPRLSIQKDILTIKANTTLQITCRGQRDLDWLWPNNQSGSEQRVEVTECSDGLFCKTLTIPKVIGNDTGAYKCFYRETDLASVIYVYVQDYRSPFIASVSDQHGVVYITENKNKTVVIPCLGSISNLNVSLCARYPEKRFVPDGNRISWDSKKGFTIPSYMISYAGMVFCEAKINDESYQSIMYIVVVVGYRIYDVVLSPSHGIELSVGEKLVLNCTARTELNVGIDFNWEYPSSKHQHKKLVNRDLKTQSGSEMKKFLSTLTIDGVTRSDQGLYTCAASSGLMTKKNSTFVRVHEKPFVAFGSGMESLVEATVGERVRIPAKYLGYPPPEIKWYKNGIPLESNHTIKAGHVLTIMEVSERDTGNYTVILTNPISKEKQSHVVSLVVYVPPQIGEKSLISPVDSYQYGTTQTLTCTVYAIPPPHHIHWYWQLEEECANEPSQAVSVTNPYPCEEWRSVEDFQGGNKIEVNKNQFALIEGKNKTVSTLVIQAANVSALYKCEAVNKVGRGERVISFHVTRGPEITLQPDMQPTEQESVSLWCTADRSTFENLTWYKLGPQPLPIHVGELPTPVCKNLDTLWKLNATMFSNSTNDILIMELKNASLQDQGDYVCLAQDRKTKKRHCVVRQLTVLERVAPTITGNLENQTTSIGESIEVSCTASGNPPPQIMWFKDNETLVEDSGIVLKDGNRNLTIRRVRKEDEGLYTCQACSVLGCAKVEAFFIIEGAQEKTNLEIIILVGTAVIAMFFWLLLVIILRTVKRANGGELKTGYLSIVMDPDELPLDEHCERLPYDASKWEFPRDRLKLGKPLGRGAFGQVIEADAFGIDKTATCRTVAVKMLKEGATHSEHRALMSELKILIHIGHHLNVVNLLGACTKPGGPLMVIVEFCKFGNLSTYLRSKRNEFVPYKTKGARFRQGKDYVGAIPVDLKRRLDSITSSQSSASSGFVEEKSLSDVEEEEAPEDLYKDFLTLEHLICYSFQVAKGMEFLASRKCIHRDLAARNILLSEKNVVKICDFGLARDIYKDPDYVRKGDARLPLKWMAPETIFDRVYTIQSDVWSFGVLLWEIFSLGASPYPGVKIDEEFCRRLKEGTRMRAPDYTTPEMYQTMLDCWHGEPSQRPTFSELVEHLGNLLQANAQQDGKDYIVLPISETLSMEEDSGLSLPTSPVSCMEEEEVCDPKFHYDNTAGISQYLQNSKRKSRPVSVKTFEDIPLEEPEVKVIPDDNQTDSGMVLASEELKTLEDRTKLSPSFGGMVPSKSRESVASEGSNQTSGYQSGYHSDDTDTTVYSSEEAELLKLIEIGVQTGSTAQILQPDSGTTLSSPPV
- Format: functional
The source made the active and inactive calls.
Your response should consist of one outcome taken from active, inactive

Recorded results for 3 compounds are shown here.
>>> print(df.to_string())
                                   compound                              targetsystem  classname
0  O=C(Nc1cccc(C(F)(F)F)n1)Nc1ccnc2cc(OC(F)F)ccc12  Vascular endothelial growth factor receptor 2 (Homo sapiens)   inactive
1  O=C(Nc1cccc(C(F)(F)F)n1)Nc1ccnc2cc(Cl)ccc12  Vascular endothelial growth factor receptor 2 (Homo sapiens)   inactive
2  CCC1CC(NS(=O)(=O)C2CC2)CC1c1ncc2cnc3[nH]ccc3n12 (centres undefined)  Vascular endothelial growth factor receptor 2 (Homo sapiens)     active

Now look at this entry.
Input: Returns: the outcome recorded for "O=c1[nH]c2cc(Br)cnc2[nH]1" in this assay.
Output: active

----------
- targetSystem: Methionyl-tRNA synthetase, putative (Trypanosoma brucei brucei);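 also: Read-out by fluorescence polarization, run as a confirmatory high-throughput counterscreen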;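 also: potency of MetRS inhibitors measured by reduced AMP formation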
- Sequence (Q38C91 whole entry): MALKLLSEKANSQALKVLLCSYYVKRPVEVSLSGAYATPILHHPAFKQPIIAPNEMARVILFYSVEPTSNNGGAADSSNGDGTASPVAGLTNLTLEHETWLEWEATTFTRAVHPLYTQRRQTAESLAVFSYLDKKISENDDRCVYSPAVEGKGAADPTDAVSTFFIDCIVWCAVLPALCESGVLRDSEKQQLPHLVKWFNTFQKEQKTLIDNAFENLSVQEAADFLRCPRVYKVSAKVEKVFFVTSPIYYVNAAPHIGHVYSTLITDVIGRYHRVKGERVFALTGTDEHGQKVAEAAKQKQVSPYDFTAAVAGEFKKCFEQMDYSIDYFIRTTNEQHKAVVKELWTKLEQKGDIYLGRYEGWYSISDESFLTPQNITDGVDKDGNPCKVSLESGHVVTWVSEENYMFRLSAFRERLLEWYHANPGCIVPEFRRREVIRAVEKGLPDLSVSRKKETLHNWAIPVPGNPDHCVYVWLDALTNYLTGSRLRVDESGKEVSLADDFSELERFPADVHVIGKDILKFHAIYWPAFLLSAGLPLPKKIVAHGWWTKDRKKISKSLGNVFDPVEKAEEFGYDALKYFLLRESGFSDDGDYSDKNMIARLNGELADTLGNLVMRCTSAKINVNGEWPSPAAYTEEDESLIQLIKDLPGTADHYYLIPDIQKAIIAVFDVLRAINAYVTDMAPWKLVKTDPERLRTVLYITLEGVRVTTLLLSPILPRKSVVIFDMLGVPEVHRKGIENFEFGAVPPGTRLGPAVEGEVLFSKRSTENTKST
- Type: functional, Trypanosoma brucei brucei strain 927/4 GUTat10.1
Active and inactive are the calls of the source.
Your response should consist of one outcome taken from active, inactive

Recorded results for 3 compounds are shown here.
In [3]: df
Out[3]:
                               recordsmiles  classname
0  Cc1[nH]c2ccccc2c1C(=O)C(=O)NCCc1ccc(S(N)(=O)=O)cc1   inactive
1     Clc1ccccc1-c1ccc2ncnc(NCc3cccnc3)c2c1   inactive
2  CC(=O)c1ccc(NC(=O)c2ccc(-n3cncn3)c([N+](=O)[O-])c2)cc1     active

Now look at this entry.
Input: Returns: the outcome recorded for "O=C(Nc1ccccc1)Nc1ccc(S(=O)(=O)N2CCCCC2)cc1" in this assay.
Output: inactive
